Consider the following molecules and their measured Ki readings.
Biological target: UniProt:P25929
Sequence (P25929 whole entry): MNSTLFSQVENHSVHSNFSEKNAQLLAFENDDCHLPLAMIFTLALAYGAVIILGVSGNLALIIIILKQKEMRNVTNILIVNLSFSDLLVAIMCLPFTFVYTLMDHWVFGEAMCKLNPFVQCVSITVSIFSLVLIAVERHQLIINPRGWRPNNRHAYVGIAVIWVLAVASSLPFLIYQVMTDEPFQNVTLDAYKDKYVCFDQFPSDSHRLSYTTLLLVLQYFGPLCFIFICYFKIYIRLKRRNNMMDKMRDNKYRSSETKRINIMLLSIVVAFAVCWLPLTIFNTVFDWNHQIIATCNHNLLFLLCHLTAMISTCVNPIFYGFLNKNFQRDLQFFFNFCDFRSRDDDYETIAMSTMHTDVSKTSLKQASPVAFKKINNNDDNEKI
Test: Antagonist activity towards Neuropeptide Y receptor type 1
Please reply with the bare figure in nM and do not write the unit itself.

COC(=O)C1=C(C)N=C(C)/C(=C(/O)OC)C1c1cccc(NC(=O)NCCNC2CCN(c3ccccc3OC)CC2)c1 (configuration not stated): 1.9

Switching to the query record.
(Q) Item COC(=O)C1=C(C)N=C(C)/C(=C(/O)OC)C1c1cccc(N/C(=N/CCNC2CCN(c3ccccc3OC)CC2)NC#N)c1 (configuration not stated) has what recorded Ki?
(A) 3.6

// provenance: ChEMBL document CHEMBL1138714
